- testTarget: human ether-à-go-go-related gene (hERG) potassium channel (human);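 note: peak tail current of the secondary pulse compared with the same well before compound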
- Sequence (Q12809 whole entry, looked up): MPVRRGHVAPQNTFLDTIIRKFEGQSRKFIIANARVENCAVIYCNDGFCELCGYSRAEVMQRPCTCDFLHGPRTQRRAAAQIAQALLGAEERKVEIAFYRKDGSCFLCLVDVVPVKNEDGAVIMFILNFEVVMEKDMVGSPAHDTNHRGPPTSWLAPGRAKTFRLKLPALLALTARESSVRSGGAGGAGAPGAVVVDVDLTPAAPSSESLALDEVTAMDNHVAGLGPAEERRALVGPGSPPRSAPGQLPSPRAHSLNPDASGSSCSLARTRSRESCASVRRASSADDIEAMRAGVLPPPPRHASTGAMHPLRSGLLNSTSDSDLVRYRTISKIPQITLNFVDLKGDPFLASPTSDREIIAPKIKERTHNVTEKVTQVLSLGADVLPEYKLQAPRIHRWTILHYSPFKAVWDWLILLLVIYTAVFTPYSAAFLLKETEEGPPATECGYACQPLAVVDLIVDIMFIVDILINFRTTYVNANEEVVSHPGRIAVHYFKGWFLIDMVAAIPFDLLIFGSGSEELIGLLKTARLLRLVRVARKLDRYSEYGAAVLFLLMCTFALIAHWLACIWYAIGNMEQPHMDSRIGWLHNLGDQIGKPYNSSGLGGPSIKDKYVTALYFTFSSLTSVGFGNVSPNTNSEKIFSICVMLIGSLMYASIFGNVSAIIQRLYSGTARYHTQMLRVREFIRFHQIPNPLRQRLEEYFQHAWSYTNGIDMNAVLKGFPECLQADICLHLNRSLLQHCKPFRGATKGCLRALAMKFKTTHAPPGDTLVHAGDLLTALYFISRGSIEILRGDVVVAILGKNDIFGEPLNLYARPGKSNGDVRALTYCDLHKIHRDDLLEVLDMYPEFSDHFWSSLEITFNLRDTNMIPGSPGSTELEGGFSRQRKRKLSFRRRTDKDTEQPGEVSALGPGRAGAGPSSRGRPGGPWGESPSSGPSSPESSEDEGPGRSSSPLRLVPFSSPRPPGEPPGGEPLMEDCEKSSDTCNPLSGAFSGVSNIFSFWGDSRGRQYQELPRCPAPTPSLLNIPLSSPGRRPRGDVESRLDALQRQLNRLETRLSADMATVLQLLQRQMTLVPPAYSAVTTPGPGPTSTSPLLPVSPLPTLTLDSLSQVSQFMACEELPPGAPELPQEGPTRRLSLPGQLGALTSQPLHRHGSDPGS
- assayOverview: primary screen, population patch clamp on CHO cells stably expressing hERG; higher = less effect of the substance
The campaign covered roughly 310,000 compounds. About 14,000 (4.5%) showed an effect of 50% or more. The effect is printed as a negative number. The full list was thinned out, with strong results kept by preference.
endpointName: hERG current change (%, negative = inhibition) at 10uM

{"columns": ["molecule", "testTarget", "result"],
 "data": [
  ["CCOC(=O)C1=C(CN2CCCCCC2)NC(=O)NC1c1ccc2c(c1)OCO2 (stereo not drawn)", "human ether-à-go-go-related gene (hERG) potassium channel (human)", "-48.2%"],
  ["CCOC(=O)C1=C(CN2CCN(C(=O)c3ccco3)CC2)NC(=O)NC1c1ccc(OC(C)C)cc1 (stereo not drawn)", "human ether-à-go-go-related gene (hERG) potassium channel (human)", "-69.3%"],
  ["CN1CCN(c2ccc(NS(=O)(=O)c3ccc(Cl)cc3)cn2)CC1", "human ether-à-go-go-related gene (hERG) potassium channel (human)", "-40.2%"],
  ["CCN1CCN(CC(=O)c2c[nH]c3ccc(C)cc23)CC1", "human ether-à-go-go-related gene (hERG) potassium channel (human)", "-4.16%"],
  ["CCOC(=O)C1=C(CN2CCN(C(=O)c3ccco3)CC2)NC(=O)NC1c1ccc(C)cc1 (stereo not drawn)", "human ether-à-go-go-related gene (hERG) potassium channel (human)", "-63.2%"],
  ["CCOC(=O)C1=C(C)NC(=O)NC1c1ccc(OC(=O)c2ccco2)cc1 (stereo not drawn)", "human ether-à-go-go-related gene (hERG) potassium channel (human)", "-2.08%"],
  ["CCOC(=O)C1=C(CN2CCN(C(=O)c3ccco3)CC2)NC(=O)NC1c1ccc(Cl)cc1 (stereo not drawn)", "human ether-à-go-go-related gene (hERG) potassium channel (human)", "-35%"],
  ["CCOC(=O)C1=C(CN2CCN(C(=O)c3ccco3)CC2)NC(=O)NC1c1ccc(F)cc1 (stereo not drawn)", "human ether-à-go-go-related gene (hERG) potassium channel (human)", "-62.9%"],
  ["O=C(NC(=S)N1CCOCC1)c1ccccc1Cl", "human ether-à-go-go-related gene (hERG) potassium channel (human)", "12.7%"]
]}
